Below, each entry is listed with its recorded growth.
test system: HL-60(TB) leukemia; assay: NCI-60 one-dose screen, 48 h (100 = growth as untreated, 0 = no growth, -100 = all killed); details: 10 µM unless noted
Compounds without any hit were thinned out: in the full panel of roughly 83,000, 20% have a hit.
Report the figure in % without appending any unit label.

Past entries and their recorded results:
- Given smiles: "COC(=O)c1n[nH]c2ccc3nc(-c4cn[nH]c4C(F)(F)F)c4c(c3c12)CCCC4"
  growth [%]: 70
- Given smiles: "CCN(CC)CCOc1ccc(-c2c(-c3ccccc3)c(=O)oc3ccccc23)cc1"
  growth [%]: 107
- Given smiles: "CC(C)(C)CC(C)(C)c1ccc(OCCOCC[N+](C)(C)CC(=O)[O-])cc1"
  growth [%]: 96.1

Problem: Which measured growth value corresponds to IC(I)I ?
Solution: 98.3

Problem: Quick check: growth of CCOC(=O)c1cc(-c2cccnc2)nc2c(Cl)cc(Cl)cc12 ?
Solution: 108

Problem: Tell me the measured growth of O=[N+]([O-])c1cccc(/C=C/c2ccc3ccccc3n2)c1 , please.
Solution: 90.8

Problem: # lookup: growth of NNC(=O)c1nc(N)n(-c2ccc(S(N)(=O)=O)cc2)n1
Solution: 99.5

Problem: Entry under review: O=C(O)c1cn(C2CC2)c2cc(N3CCN(C(=O)c4cc(-c5ccc(Cl)cc5)nc5ccccc45)CC3)c(F)cc2c1=O . Reported growth?
Solution: 101

###

test system: HL-60(TB) leukemia; assay: NCI-60 one-dose screen, 48 h (100 = growth as untreated, 0 = no growth, -100 = all killed); conditions: 10 µM unless noted
The panel holds about 83,000 compounds, 20% with a hit somewhere; the sample as a whole holds those more often.
Criterion: growth strictly less than 30%. Met: Yes. Not met: No.

Problem: Item O=[N+]([O-])c1ccc(N2CCN(Cc3ccccc3)CC2)c2c1no[n+]2[O-] : growth beneath 30%, strictly?
Solution: Yes

Problem: Hello, is growth of the following compound strictly smaller than 30%? CNC(=O)c1ccccc1Nc1nc(Nc2ccc3c(c2OC)CCC[C@H](N2CCN(CCO)CC2)C3)ncc1Cl
Solution: Yes

Problem: Quick check: does C=C(C)[C@@H]1CCC[C@]2(COS(=O)(=O)c3ccc(C)cc3)CC[C@]3(C)[C@@H](CC[C@@H]4[C@@]5(C)CCCNC(C)(C)[C@@H]5CC[C@]43C)[C@@H]12 have growth under 30%?
Solution: Yes

Problem: For this compound, is growth lower than 30%? CCOC(=O)C1=C(C)n2nc(CC#N)c(C#N)c2NC1c1ccc(Cl)cc1 (stereo not drawn)
Solution: No

Problem: hey, is growth for COc1cc(C2CC(c3cccc(Br)c3)=NN2C(C)=O)cc(OC)c1OC (stereo not drawn) lower than 30% or not?
Solution: No

Problem: Item CCN1CCN(c2cc(C)nc(N(CCCNc3ccnc4cc(Cl)ccc34)Cc3cccs3)n2)CC1 : growth beneath 30%, strictly?
Solution: Yes

Problem: Is growth of O=C(OCc1ccc2c(Cl)cc(Cl)c(O)c2n1)n1cncn1 strictly below 30%?
Solution: Yes

Problem: State whether 30% exceeds growth recorded for CC[C@]12CN3CCc4c([nH]c5ccccc45)[C@@](C(=O)OC)(c4cc5c(cc4OC)N(C)[C@H]4[C@@](O)(C(=O)OC)[C@H](OC(C)=O)[C@]6(CC)C=CCN7CC[C@]54[C@@H]76)CC(C3)[C@H]1O2 (stereo partly drawn) .
Solution: Yes

###

system: HL-60(TB) leukemia; assay: NCI-60 one-dose screen, 48 h (100 = growth as untreated, 0 = no growth, -100 = all killed); conditions: 10 µM unless noted
About 83,000 compounds went through this panel and 20% of them were active in at least one assay; those are over-represented in the sample as a whole.
Listed molecules paired with reported growth
Give just the numeric value; % need not be written.

Worked cases, answers included:
- Given smiles: "Cc1ccc(Cc2cnc(NC(=O)c3cc(Br)cs3)s2)cc1"
  Result unit: "%"
  growth: 8.08
- Given smiles: "COc1ccc(C(=O)c2cc(OC)c(OC)c(OC)c2)cc1/C=C/C(=O)c1ccc(OC)c(OC)c1"
  Result unit: "%"
  growth: 19.1

Problem: Given the entry COc1ccc(-n2c(C)nc3c(c(C)nn3-c3ccccc3)c2=O)cc1 , report its measured growth.
Solution: -18.3

Problem: # growth lookup, item O=C(OCc1ncc(-c2ccc(C(F)(F)F)cc2)c(NC2CCCCCC2)n1)c1c(F)c(F)c(F)c(F)c1F
Solution: 27.5

Problem: Recorded growth for O=C(Cn1ccc(=O)[nH]c1=O)c1ccc([N+](=O)[O-])o1 , please?
Solution: 87.1

###

system: HL-60(TB) leukemia; test: NCI-60 one-dose screen, 48 h (100 = growth as untreated, 0 = no growth, -100 = all killed); conditions: 10 µM unless noted
Compounds without any hit were thinned out: in the full panel of roughly 83,000, 20% have a hit.
Lab note: anything with growth below 70% is marked Condition met; values at 70% or higher are marked Condition not met.

Example entries and their recorded answers appear below.
- Compound: "N#CC1=C(c2ccc(Cl)cc2)Nc2c(c(-c3ccc(Cl)cc3)nn2-c2ccccc2)C12C(=O)Nc1ccc(Cl)cc12 (stereo unspecified)"
  Tested target: "HL-60(TB) leukemia"
  Assigned label: "Condition met"
- Compound: "O=C(Nc1ccc(F)cc1F)c1cc(Br)ccc1O"
  Tested target: "HL-60(TB) leukemia"
  Assigned label: "Condition met"

Problem: # check: growth < 70% for O=C(O)CNC(=O)C1(N2C(=O)c3ccccc3C2=O)CCCC1
Solution: Condition not met

Problem: Strictly below 70%: is that where growth of CC(=O)OC1C=CC(OC(C)=O)O1 (stereo unspecified) sits?
Solution: Condition not met

Problem: # strict comparison: is reported growth < 70%? input = Clc1ccc(C2=NN(c3ccccc3)[C@H](c3cn(-c4ccccc4)nc3-c3ccccc3)C2)cc1
Solution: Condition not met

Problem: Criterion: growth strictly below 70%. Is it met by CCOC(=O)c1c2ncccc2n2c(=O)n(-c3ccccc3C)nnc12 ?
Solution: Condition met

Problem: In the record for COc1ccc(-c2c(N)n[nH]c2-c2cc(OC)c3c(c2)OCCO3)cc1 , is growth less than 70%?
Solution: Condition met

Problem: Decide: growth of O=C1c2ccccc2-c2c1nc1ccccc1[n+]2[O-] strictly below 70%?
Solution: Condition not met

Problem: Please check: growth for NC(=O)c1ccc[n+]([C@@H]2O[C@H](COP(=O)([O-])OP(=O)(O)OC[C@H]3O[C@@H](n4cnc5c(N)ncnc54)[C@H](O)[C@@H]3O)[C@@H](O)[C@H]2O)c1 , strictly under 70% or not?
Solution: Condition not met

Problem: Threshold test, growth < 70%: N#Cc1cccc(-c2c(-c3ccc4ccccc4c3)oc3ccccc3c2=O)c1
Solution: Condition met

Problem: Item c1ccc2c(c1)CCN(NCCN1CCCC1)C2 : growth beneath 70%, strictly?
Solution: Condition not met

Problem: Take the compound CC(=O)Nc1ccc(S(N)(=O)=O)cc1 and say whether its growth is less than 70%.
Solution: Condition not met

Problem: Is 70% strictly greater than the compound's reported growth? compound: ClCCn1c(CCl)nc2ccc(Cl)cc21
Solution: Condition met

Problem: I wonder whether COc1ccc2nc(NC(=O)CSc3nnc4n3S(=O)(=O)c3ccccc3N4C)sc2c1 has growth below 70%. Can you tell?
Solution: Condition met

Problem: Field: below-cutoff. Rule: recorded growth strictly less than 70%. Subject: COCCOC(=O)NC(=O)Nc1ccc(/C(=N/O)c2ccc(Cl)cc2)cc1
Solution: Condition met

Problem: # TODO verify growth < 70% strictly for this compound: COc1cc(-c2nn(-c3ccc(NC(=O)NCCCNC(=O)c4ccccc4)cc3)cc2-c2ccncc2)ccc1Cl
Solution: Condition met

Problem: # TODO verify growth < 70% strictly for this compound: Cc1c2c(cc3c1[nH]c1ccccc13)C=NCC2
Solution: Condition not met

###

system: HL-60(TB) leukemia; assay: NCI-60 one-dose screen, 48 h; details: 10 µM unless noted
About 83,000 compounds went through this panel and 20% of them were active in at least one assay; those are over-represented in the sample as a whole. The source made the active and inactive calls. The calls were made as follows: active = growth percent below 10; inactive = the rest.
Entry note: the call must match one of active, inactive

Problem: Which outcome was assigned to c1cc[n+](C2c3ccccc3C([n+]3ccccc3)c3ccccc32)cc1 (configuration not stated) in this test?
Solution: inactive

Problem: Could you check what this test reported for NS(=O)(=O)c1cnccc1Oc1cccc2cccnc12 ?
Solution: inactive

Problem: Would you mind telling me which call this test gave CC(=O)c1ccc(NC(=O)Nc2ccc(S(=O)(=O)Nc3ccc(Cl)nn3)cc2)cc1 ?
Solution: inactive

###

tested on: HL-60(TB) leukemia; assay: NCI-60 one-dose screen, 48 h (100 = growth as untreated, 0 = no growth, -100 = all killed); conditions: 10 µM unless noted
Compounds without any hit were thinned out: in the full panel of roughly 83,000, 20% have a hit.
Output True for growth not less than 70%; output False otherwise.

As a guide, the following entries are already answered.
- Molecule: "Cc1ncc(CO)c(C(=O)O)c1O"
  Tested target: "HL-60(TB) leukemia"
  Assigned label: "True"
- Molecule: "CNC(=O)c1cc(Oc2ccc(CC(=O)Nc3cc(C(C)(C)C)cn3C)cc2)ccn1"
  Tested target: "HL-60(TB) leukemia"
  Assigned label: "True"
- Molecule: "Cn1cnc([N+](=O)[O-])c1S(=O)(=O)Oc1cccc2ccccc12"
  Tested target: "HL-60(TB) leukemia"
  Assigned label: "False"
- Molecule: "Clc1ccc2c(NCCNc3nc(N4CCCCC4)nc4ccccc34)ccnc2c1"
  Tested target: "HL-60(TB) leukemia"
  Assigned label: "False"
- Molecule: "Clc1cnc(Nc2ccc(OCCN3CCCC3)cc2)nc1NCc1ccco1"
  Tested target: "HL-60(TB) leukemia"
  Assigned label: "False"
- Molecule: "COc1cc(C2CC(c3cc(OC)c(OCCCOc4ccc(-n5c(/C=C/c6ccccc6)nc6ccccc6c5=O)cc4)c(OC)c3)=NO2)cc(OC)c1OC (stereo unspecified)"
  Tested target: "HL-60(TB) leukemia"
  Assigned label: "True"
- Molecule: "O=C1CSC(c2ccccc2Cl)N1c1nnc(Cn2nnc3ccccc32)o1 (stereo unspecified)"
  Tested target: "HL-60(TB) leukemia"
  Assigned label: "True"
- Molecule: "Nc1cc2ccccc2c(O)c1O"
  Tested target: "HL-60(TB) leukemia"
  Assigned label: "False"
- Molecule: "CN(C)Cc1ccccn1"
  Tested target: "HL-60(TB) leukemia"
  Assigned label: "True"
- Molecule: "[B-][N+](CC)(CC)c1ccccc1"
  Tested target: "HL-60(TB) leukemia"
  Assigned label: "False"

Problem: Test whether the molecule Cc1ccc(C(=O)Nc2ccc(Cl)cc2C(=O)NCc2ccccc2)cc1 records growth of 70% or higher.
Solution: False

Problem: Does the reported growth for N=C1C(c2nc(-c3ccc(Br)cc3)cs2)=C(O)CN1Cc1cccnc1 fall at or above the 70% mark?
Solution: True

Problem: Record CC(C)OC(=O)Nn1cnc2ccccc21 ; criterion: growth no lower than 70%. Met?
Solution: True

Problem: Is growth for O=[N+]([O-])C=C(c1ccccc1)c1ccccc1 at or above 70%?
Solution: False

Problem: Check the entry Nc1cc(N)c2cccnc2c1O : does growth equal or exceed 70%?
Solution: False

Problem: Is growth for CCCCCCCCCCCCCCCCC(Br)C(=O)O (stereo unspecified) at or above 70%?
Solution: True

Problem: Decide: growth of CC(=O)C1CCC2C3CC=C4CC(SC(=N)N)CCC4(C)C3CCC12C (stereo unspecified) >= 70%?
Solution: False

Problem: Check this molecule for growth at or above 70%: CC(C)(C)NCCC(O)c1cc2c(Cl)cc(Cl)cc2c2cc(C(F)(F)F)ccc12 (stereo unspecified)
Solution: False

Problem: Does the molecule Nc1c(C(=O)Nc2cccc(Cl)c2)sc2nc3c(cc12)C(=O)CCC3 have recorded growth that is 70% or more?
Solution: False

Problem: growth >= 70% for CN(Cc1cc(Cl)cc(Cl)c1O)Cc1cc(Cl)cc(Cl)c1O ?
Solution: False

Problem: Quick check: does O=C(Nc1nc2ccc(F)cc2s1)c1cc(-c2ccc(F)cc2)n2nc(-c3ccccc3)cc2n1 have growth greater than or equal to 70%?
Solution: True
